test: solvent given as SMILES; settings: in CO
reportedProperty: absorption maximum (nm)
Write it as a number; the unit nm goes unstated.

Some solved cases for reference:
# compound, resultUnit, absorption maximum
rows = [
    ("CN1C(=CC2=C([O-])C(=CC3=[N+](C)c4ccc(Cl)cc4C3(C)C)C2=O)C(C)(C)c2cc(Cl)ccc21", "nm", 635),
    ("CCC1(CC)c2cc(-c3ccc(C(C)(C)C)cc3)ccc2-c2ccc(-c3ccc4c(c3)C(CC)(CC)c3cc(-c5ccc6c(c5)C(CC)(CC)c5cc(-c7ccc(C(C)(C)C)cc7)ccc5-6)ccc3-4)cc21", "nm", 360.54),
    ("CCCCCCOc1ccc2oc3c(c2c1)=CC1=C(c2ccccc2C)c2cc4c5cc(OCCCCCC)ccc5oc4n2[B-](F)(F)[N+]=31", "nm", 585),
    ("CCCCC1=Cc2c3ccc4cccc5ccc(c6cc(-c7ccc(N(c8ccccc8)c8ccccc8)cc7)n(c26)P1(=O)c1ccccc1)c3c45 (configuration not stated)", "nm", 428),
    ("F[B-]1(F)n2ccnc2-c2cccc[n+]21", "nm", 293),
    ("C=CCOc1ccc(-c2nc3cc(C(NC(=O)OC(C)(C)C)C(=O)OC)ccc3o2)cc1 (configuration not stated)", "nm", 309),
]

// sample Clc1ccc(/C=C/c2ccc(-c3nc4c5cccnc5c5ncccc5c4[nH]3)cc2)cc1 , its absorption maximum was 360

// sample O=C1/C(=C\c2ccc(N(c3ccccc3)c3ccccc3)cc2)S(=O)(=O)c2ccccc21 , its absorption maximum was 477

// sample Cc1nc2c(ccc3c2sc(/C=C/c2ccc(N(c4ccccc4)c4ccccc4)cc2)[n+]3C)s1 , its absorption maximum was 522

// sample Nc1ccc(C#Cc2ccc3ccc4ccc(C#Cc5ccc(N)cc5)c5ccc2c3c45)cc1 , its absorption maximum was 415

// sample CC(C)(C)c1ccc(C(C)(C)C)c(N2C(=O)c3cccc4c(-c5ccc(-c6ccc(N(c7ccccc7)c7ccccc7)cc6)s5)ccc(c34)C2=O)c1 , its absorption maximum was 447

// sample O=C(/C=C/c1cn(-c2ccccc2)nc1-c1ccccc1)c1c(O)c2ccccc2oc1=O , its absorption maximum was 352

// sample c1ccc(-c2nc(-c3ccc(-c4nc(-c5ccccc5)c(-c5ccccc5)[nH]4)cc3)[nH]c2-c2ccccc2)cc1 , its absorption maximum was 357

// sample CC1(C)C(/C=C/C=C/C=C/C=C2/N(S(=O)(=O)[O-])c3ccc(S(=O)(=O)[O-])cc3C2(C)C)=[N+](S(=O)(=O)[O-])c2ccc(S(=O)(=O)[O-])cc21 , its absorption maximum was 755

// sample CC(=O)Nc1ccc2ccc3cccc4ccc1c2c34 , its absorption maximum was 338

// sample O=C1C=C(Nc2cccc(F)c2F)C(=O)c2ccccc21 , its absorption maximum was 439

// sample CCC1=C(C)C(=O)n2c1cc1c(C)c(CCC(=O)O)c(C)n1c2=O , its absorption maximum was 425

====

assay: solvent given as SMILES; conditions: in CCOCC
Returns satisfied if the recorded absorption maximum is greater than or equal to 400 nm, and not satisfied otherwise.

# molecule, labelValue
data = [
    ("CN(C)c1ccc(/C=C/C=C2\\CC/C(=C\\C=C\\c3ccc(N(C)C)cc3)C2=O)cc1", "satisfied"),
    ("COC(=O)C(Cc1ccc2oc(-c3ccc4c(c3)c3ccccc3n4-c3ccccc3)nc2c1)NC(=O)OC(C)(C)C (stereo unspecified)", "not satisfied"),
    ("CN(C)c1ccc(C=C/C=C/C=C/c2ccc(C#N)cc2)cc1", "satisfied"),
    ("COc1ccc2c3c(cccc13)C(=O)c1ccccc1-2", "satisfied"),
    ("CN(C)c1ccc(C(=O)Nc2ccccc2)cc1", "not satisfied"),
]

Q: absorption maximum >= 400 nm for O=C1c2ccccc2C(=O)c2cc(-c3ccc(N(c4ccccc4)c4ccccc4)cc3)ccc21 ?
Ans: satisfied

Q: absorption maximum >= 400 nm for CN(C)c1ccc(/C=C2\CCCC2=O)cc1 ?
Ans: not satisfied

Q: absorption maximum >= 400 nm for CCC1(CC)c2cc(C=C(C#N)C#N)ccc2-c2ccc(N(C)C)cc21 ?
Ans: satisfied

Q: absorption maximum >= 400 nm for CCC1=C(C)C2=C(C)c3c(C)c(CC)c(C)n3[B-](F)(F)[N+]2=C1C ?
Ans: satisfied

Q: absorption maximum >= 400 nm for CC(C)[Si]1(C(C)C)c2cc(C#N)ccc2-c2ccc(N(C)C)cc21 ?
Ans: not satisfied

Q: absorption maximum >= 400 nm for Nc1cc(N)cc(-c2nc3ccccc3s2)c1 ?
Ans: not satisfied

====

test: solvent given as SMILES; conditions: in ClC(Cl)Cl
reportedProperty: absorption maximum (nm)
Write it as a number; the unit nm goes unstated.

// sample CCC1=C(C)c2cc3c(OC)cc(OC)cc3c(=O)n2C1=O , its absorption maximum was 434

// sample CCN(CC)c1ccc2cc(-c3ccc(-c4ccc5c6ccccc6c6c7cc(-c8ccc(-c9cc%10ccc(N(CC)CC)cc%10oc9=O)cc8)ccc7c7ccccc7c6c5c4)cc3)c(=O)oc2c1 , its absorption maximum was 412

// sample N#Cc1ccc(N/N=C/c2ccc3ccccc3c2O)cc1 , its absorption maximum was 384

// sample CN(C)c1ccc(/C=C/c2cc[n+](CCCCC[n+]3ccc(/C=C/c4ccc(N(C)C)cc4)cc3)cc2)cc1 , its absorption maximum was 494

====

assay: solvent given as SMILES; settings: in C1CCOC1
reportedProperty: absorption maximum (nm)
Write it as a number; the unit nm goes unstated.

# compoundSmiles, reportedMeasurement
data = [
    ("CC1(C)CC(/C=C/c2ccc(N3CCOCCOCCOCCOCC3)cc2)=CC(=C(C#N)C#N)C1", 500),
    ("CCC1(CC)c2cc(Br)ccc2-c2c1c1c(c3c2C(CC)(CC)c2cc(-c4cccs4)ccc2-3)C(CC)(CC)c2cc(Br)ccc2-1", 336),
    ("Cc1cc(-c2ccc(-n3c4ccccc4c4ccccc43)cc2)nc(-c2ccc(-c3ccccc3)cc2)n1", 341),
    ("CCN1c2ccc(/C=N/Nc3ccccn3)cc2Sc2cc(/C=N/Nc3ccccn3)ccc21", 392),
]

// sample O=C1c2cccc3c(NCc4ccccn4)c4ccccc4c(c23)C(=O)N1Cc1ccccn1 , its absorption maximum was 520

// sample CCN(CC)c1ccc2cc(-c3cc(SC)c(C#N)c(=O)o3)c(=O)oc2c1 , its absorption maximum was 512

// sample CC(C)(C)c1ccc(C2=C(c3ccc(-n4c5ccccc5c5ccccc54)cc3)S(=O)(=O)c3c2sc(-c2ccc(-n4c5ccccc5c5ccccc54)cc2)c3-c2ccc(C(C)(C)C)cc2)cc1 , its absorption maximum was 419

// sample CCN1c2ccc(/C=N/Nc3ccccn3)cc2Sc2cc(-c3ccc(C#N)cc3)ccc21 , its absorption maximum was 383

// sample CCN(CC)c1ccc(-c2nc3c4ccccc4n(C)c3nc2-c2ccc(B(c3c(C)cc(C)cc3C)c3c(C)cc(C)cc3C)cc2)cc1 , its absorption maximum was 416

// sample CCN(CC)c1ccc(-c2nc3c(c4c2-c2ccccc2CC4)-c2ccccc2CC3)cc1 , its absorption maximum was 357

// sample C(=C\c1nc(/C=C/c2ccc(-n3c4ccccc4c4ccccc43)cc2)nc(/C=C/c2ccc(-n3c4ccccc4c4ccccc43)cc2)n1)/c1ccc(-n2c3ccccc3c3ccccc32)cc1 , its absorption maximum was 381

// sample Cc1cc(C2=C(c3cc(C)sc3C)S(=O)(=O)c3ccccc32)c(C)s1 , its absorption maximum was 349

// sample CSc1cc(-c2cc3cc4c5c(c3oc2=O)CCCN5CCC4)oc(=O)c1C#N , its absorption maximum was 532

// sample CCOC(=O)c1sc(SC)c2c(=O)n(C)nnc12 , its absorption maximum was 387.5

// sample COc1cc2c(cc1-c1ccc(N(c3ccccc3)c3ccccc3)cc1)Cc1c3c(c4c(c1-2)-c1cc(OC)c(-c2ccc(N(c5ccccc5)c5ccccc5)cc2)cc1C4)C(=O)N(CCC(C)C)C3=O , its absorption maximum was 428

// sample CN(C)c1ccc(C(=O)Nc2ccccc2)cc1 , its absorption maximum was 311

// sample Cc1cc(C)c([B-]2(c3c(C)cc(C)cc3C)[O+]=P(c3ccccc3)(c3ccccc3)c3cc(-c4ccc(C(F)(F)F)cc4)sc3-c3sc(-c4ccc(C(F)(F)F)cc4)cc32)c(C)c1 , its absorption maximum was 405

====

assay: solvent given as SMILES; conditions: in ClC(Cl)Cl
Recorded absorption maximum values for a group of compounds are listed next.
Respond with the figure and its unit, in that order.

# compound, reportedProperty, reportedMeasurement
measured = [
    ("Cc1ccccc1C1CC(=O)Oc2c1c1nc3ccccc3nc1c1ccccc21 (stereo not drawn)", "absorption maximum", "410 nm"),
    ("COC(=O)C(Cc1ccc2oc(-c3ccc(N(c4ccccc4)c4ccccc4)cc3)nc2c1)NC(=O)OC(C)(C)C (stereo not drawn)", "absorption maximum", "369.25 nm"),
    ("CC1(C)CC(/N=C/c2ccc3ccc4cccc5ccc2c3c45)CC(C)(C)N1", "absorption maximum", "361 nm"),
    ("CSc1nc(-c2ccc(-n3c4ccccc4c4ccccc43)cc2)cc(-c2ccc(-n3c4ccccc4c4ccccc43)cc2)n1", "absorption maximum", "364 nm"),
]

// sample CCOC(=O)/C(C)=C/C1=C(c2ccc(C)cc2)C2=Nc3c(-c4ccc(C)cc4)c(-c4ccc(OC)cc4)c(-c4ccc(C)cc4)n3[B-](F)(F)[N+]2=C1c1ccc(C)cc1 , its absorption maximum was 670 nm

// sample Cc1ccc(-n2c3ccccc3c3cc(C=C(C#N)C#N)ccc32)cc1 , its absorption maximum was 413 nm

// sample CCC1=C(C)C(=O)n2c1cc1c(c(C)c(C(=O)OCC(C)C)n1CC(C)C)c2=O , its absorption maximum was 399 nm

// sample CCOc1ccc2c(-c3nc(-c4ccccc4Cl)no3)cc(=O)oc2c1 , its absorption maximum was 394 nm
